molecular target: PtCAD (recombinant coniferyl alcohol dehydrogenase, GenBank AF217957, C-terminal His tag, expressed in E. coli BL21(DE3)) (Populus tremuloides); experiment: Inhibition kinetics of PtCAD: PtCAD-mediated reduction of sinapaldehyde in the presence of coniferaldehyde, HPLC-UV/MS (FIG. 6); conditions: coniferaldehyde (1 to 5 μM) as inhibitor of PtCAD-mediated reduction of sinapaldehyde (1 to 200 μM); 500 μM NADPH; 1.2 μg purified recombinant PtCAD; pH 8.0; 4 min; 30° C.; read-out: apparent inhibition constant (Ki)
Sequence (Q9M632 1-357): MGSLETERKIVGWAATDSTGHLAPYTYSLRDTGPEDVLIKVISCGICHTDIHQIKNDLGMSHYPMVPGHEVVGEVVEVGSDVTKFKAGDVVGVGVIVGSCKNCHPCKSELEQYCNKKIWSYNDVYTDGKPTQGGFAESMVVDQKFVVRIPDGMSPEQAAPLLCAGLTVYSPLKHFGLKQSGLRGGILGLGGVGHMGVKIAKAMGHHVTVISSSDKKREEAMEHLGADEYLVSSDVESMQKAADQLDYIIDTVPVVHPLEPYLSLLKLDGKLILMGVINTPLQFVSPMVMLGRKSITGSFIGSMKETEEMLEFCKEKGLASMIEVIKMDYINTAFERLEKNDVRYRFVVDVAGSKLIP
readout-kind: Ki (nM)
Numbers only here, please. The scale is nM.

Look up Ki for this molecule: "COc1cc(/C=C/C=O)ccc1O"
1700
